// provenance: patent US20250144067A1

Cholesterol-free overview
System: NCI-H292 lung cancer cells
Procedure summary: FDA drug screening, complete media vs cholesterol-free media without statin (TABLE 1)
Type: cell-based, human
Measurement setup: NCI-H292 cells, FDA drug library screen, cholesterol-free media without statin
Answer using only a numeral; do not append any unit.

For orientation, consider the following solved cases.
{"Compound": "COc1cc2nccc(Oc3ccc(NC(=O)C4(C(=O)Nc5ccc(F)cc5)CC4)cc3)c2cc1OC [Cabozantinib]", "Cholesterol-free": 1.023}
{"Compound": "N#Cc1ccnc(N2C(=O)CC[C@H]2C(=O)N(c2cncc(F)c2)[C@H](C(=O)NC2CC(F)(F)C2)c2ccccc2Cl)c1", "Cholesterol-free": 0.9061}
{"Compound": "Cc1nc(C(=O)NCC(=O)O)c(O)c2ccc(Oc3ccccc3)cc12", "Cholesterol-free": 1.074}

Given the entry CSCC[C@H](N)C(=O)O , report its measured Cholesterol-free. 0.9015

---

Tested on: NCI-H292 lung cancer cells
Procedure summary: FDA drug screening, complete media vs cholesterol-free media without statin (TABLE 1)
Assay type: cell-based, human
Measurement setup: Complete minus Cholesterol-free; greater than 0 enhanced anti-cancer activity, about 0 neutral, below 0 antagonist
Where a name gives a salt, the structure may show the parent alone.
Experimental endpoint: Difference
API doc: respond with a numeric literal and nothing else, no unit.

Please review the following examples before continuing.
{"Compound": "C#C[C@]1(OC(C)=O)CC[C@H]2[C@@H]3CCC4=CC(=O)CC[C@@H]4[C@H]3CC[C@@]21C [Norethindrone acetate]", "Val": "−0.12"}
{"Compound": "NCCC(O)(P(=O)(O)O)P(=O)(O)O [Pamidronic acid]", "Val": "−0.18"}
{"Compound": "O=c1ccn([C@@H]2O[C@H](COP(=O)([O-])OP(=O)([O-])OP(=O)([O-])OP(=O)([O-])OC[C@H]3O[C@@H](n4ccc(=O)[nH]c4=O)[C@H](O)[C@@H]3O)[C@@H](O)[C@H]2O)c(=O)[nH]1.[Na+].[Na+].[Na+].[Na+] [Diquafosol (tetrasodium)]", "Val": "−0.16"}
{"Compound": "OCCOCCN1CCN(C2=Nc3ccccc3Sc3ccccc32)CC1 [Quetiapine]", "Val": "−0.09"}
{"Compound": "N#Cc1ccnc(N2C(=O)CC[C@H]2C(=O)N(c2cncc(F)c2)[C@H](C(=O)NC2CC(F)(F)C2)c2ccccc2Cl)c1 [Ivosidenib]", "Val": "−0.17"}
{"Compound": "Cc1cccc(C)c1NC(=O)C1CCCCN1C (stereo not drawn) [Mepivacaine]", "Val": "−0.09"}

Alright, here's another compound for you.
What value of measured Difference is listed for CCCN(CCc1cccs1)[C@H]1CCc2c(O)cccc2C1 [Rotigotine (Hydrochloride)] ? −0.08

---

System: NCI-H292 lung cancer cells
Procedure summary: FDA drug screening, complete media vs cholesterol-free media without statin (TABLE 1)
Assay type: cell-based, human
Measurement setup: NCI-H292 cells, cholesterol-free media without statin, FDA drug library screen
Counter-ions that a name gives are not always drawn.
// map Cholesterol-free onto a label; ranges bucket A: < 0.6; bucket B: ≥ 0.6 and < 1; bucket C: ≥ 1

{"Molecule": "CN1C(=O)COc2c(C(=O)NC3CN4CCC3CC4)cc(Cl)cc21 (stereo not drawn) [Azasetron (hydrochloride)]", "Measured on": "NCI-H292 lung cancer cells", "Cat": "bucket B"}

Dear colleague, I would appreciate it if you could identify the bin for CC1=C(C(=O)O)N2C(=O)[C@@H](NC(=O)[C@H](N)c3ccc(O)cc3)[C@H]2SC1 [Cefadroxil] and reply at your convenience. bucket C

Record CN1CC2c3ccccc3Oc3ccc(Cl)cc3C2C1 (stereo not drawn) [Asenapine (hydrochloride)] — which class? bucket C

In plain terms, what class is COC(=O)C[C@](O)(CCCC(C)(C)O)C(=O)O[C@@H]1C(OC)=C[C@]23CCCN2CCc2cc4c(cc2[C@H]13)OCO4 [Homoharringtonine] ? bucket A

Record C/C(=C\c1csc(C)n1)[C@@H]1C[C@@H]2O[C@]2(C)CCC[C@H](C)[C@H](O)[C@@H](C)C(=O)C(C)(C)[C@@H](O)CC(=O)N1 [Ixabepilone] — which class? bucket A

Lab log: CC(C)C[C@H](N)C(=O)O [L-Leucine] — assign Cholesterol-free category bucket C

Pick a category. Item: O=C(C[S+]([O-])Cc1ccco1)NC/C=C\COc1cc(CN2CCCCC2)ccn1 (stereo not drawn) [Lafutidine] bucket C

The entry to classify is CCCCCCCCN=c1ccn(CCCCCCCCCCn2ccc(=NCCCCCCCC)cc2)cc1 [Octenidine (dihydrochloride)] ; which class holds it? bucket A

Assign a bin to COC(=O)N[C@H](C(=O)N1CCC[C@H]1c1nc(-c2ccc(-c3ccc(-c4c[nH]c([C@@H]5CCCN5C(=O)[C@@H](NC(=O)OC)C(C)C)n4)cc3)cc2)c[nH]1)C(C)C [Daclatasvir] bucket B

Please report the category associated with CC(C)(CO)[C@@H](O)C(=O)NCCC(=O)[O-].CC(C)(CO)[C@@H](O)C(=O)NCCC(=O)[O-].[Ca+2] [D-Pantothenic acid (hemicalcium salt)] , nothing else. bucket B

Lab note: which band did O=C1NCCN1CCN1CCC(c2cn(-c3ccc(F)cc3)c3ccc(Cl)cc23)CC1 [Sertindole] land in? bucket A

For this molecule, which bin applies? CC(=O)OCC(=O)[C@@]1(O)[C@H](C)C[C@H]2[C@@H]3CCC4=CC(=O)C=C[C@]4(C)[C@@]3(F)[C@@H](O)C[C@@]21C [Dexamethasone acetate] bucket B

Which category does the recorded Cholesterol-free put C=CCc1ccc(O)c(-c2cc(CC=C)ccc2O)c1 [Magnolol] in? bucket B
